target under test: CCR4 (Homo sapiens)
Construct: CEM Cells Endogenous Express CCR4; endogenous in cells; host or cells: CEM cells
Sequence (P51679 whole entry): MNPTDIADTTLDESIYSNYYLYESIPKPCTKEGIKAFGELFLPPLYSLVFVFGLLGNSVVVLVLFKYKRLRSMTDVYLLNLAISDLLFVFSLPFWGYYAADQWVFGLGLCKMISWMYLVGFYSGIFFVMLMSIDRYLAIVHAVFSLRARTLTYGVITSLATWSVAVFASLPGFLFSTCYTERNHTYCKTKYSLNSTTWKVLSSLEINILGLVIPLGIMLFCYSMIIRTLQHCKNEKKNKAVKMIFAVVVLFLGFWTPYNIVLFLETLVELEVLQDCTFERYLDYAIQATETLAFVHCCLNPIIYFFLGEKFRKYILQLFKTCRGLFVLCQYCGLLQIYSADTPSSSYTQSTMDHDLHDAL
assay notes: CEM cell chemotaxis (migration) assay to CCL22 (MDC) in 100% Fetal Bovine Serum (FBS)
Assay type: cell-based
measurement context: CEM cells in 100% FBS with 1% HEPEs; recombinant human CCL22 0.1 nM; 37° C. 60 minutes
# Lookup of reported IC50 keyed by entry

compound	recorded value
C[C@@H](Nc1nc(N2CCN(C(=O)[C@H]3COC(=O)N3)CC2)ncc1Cl)c1ccc(Cl)cc1Cl [Example 1.122]	< 100 nM
C[C@@H](Nc1nc(N2CCN(C(=O)N(C)C3CCNC3)CC2)ncc1Cl)c1ccc(Cl)cc1Cl (stereo partly shown) [Example 1.059]	< 100 nM
C[C@@H](Nc1nc(N2CCN(C(=O)CCN(C)C)CC2)ncc1Cl)c1ccc(Cl)cc1Cl [Example 1.010]	< 100 nM

Consider now this further compound.
Value of IC50 reported for the compound C[C@@H](Nc1nc(N2CCN(C(=O)C[C@H]3CCC(=O)N3)CC2)ncc1Cl)c1ccc(Cl)cc1Cl [Example 1.234] is 100 to 1000 nM

Origin of measurements: patent US20230382894A1
